cell viability reference
Tested on: U2OS
experiment: cell viability relative to DMSO; higher = less toxic
recorded_conditions: 72 h; 1000 nM

compound | cell viability, %
CN(C)CCn1cc(S(=O)(=O)c2cccc(F)c2)c2cccnc21 | 98.2
Cc1ccnc(NC(=O)C(C)c2cccc(C(=O)c3ccccc3)c2)c1 (centres undefined) | 103
Oc1ccc(C2CNCCc3c2cc(O)c(O)c3Cl)cc1 (centres undefined) | 102
CC(C)(C)NC[C@H](O)c1ccc(O)cc1Cl | 100
N[C@@H](CCC(=O)N[C@@H](CSN=O)C(=O)NCC(=O)O)C(=O)O | 98.3
O=c1[nH]c2ccccc2n1C1CCN(CCOc2ccccc2)CC1 [oxiperomide] | 99.8
CN1C(=O)N(C)C2C1N(C)C(=O)N2C (centres undefined) | 106
CCCCCNC(=N)N/N=C/c1c[nH]c2ccc(OC)cc12 | 97.7
O=C(O)c1cc(=O)c2ccccc2[nH]1 | 97
O=C(O)C(=O)c1cn(Cc2ccccc2)c2ccc(-c3ccc(OC(F)(F)F)cc3)cc12 | 94.7
Cc1ccc2c(c1)C(=O)[C@]1(O)CCN(c3ccccc3)C1=N2 (racemic) [blebbistatin-(+/-)] | 99.8
Cc1ccc(S(=O)(=O)n2c(N)nc3ccccc32)cc1 | 103
Cc1cc(-n2c(=O)[nH]c(=O)n(C)c2=O)ccc1Oc1ccc(SC(F)(F)F)cc1 | 99.6
FC(F)(F)c1cc(CO[C@H]2CCCN[C@H]2c2ccccc2)cc(C(F)(F)F)c1 | 96.2

====

System: Vero E6
experiment: cell viability relative to DMSO; higher = less toxic
recorded_conditions: 72 h; 1000 nM
cell viability reference

compound | measure_unit | cell viability
OC[C@H]1O[C@@H](O[C@@H]2[C@H](O)[C@@H](O)[C@H](O[C@H]3[C@H](O)[C@@H](O)C(O)O[C@@H]3CO)O[C@@H]2CO)[C@H](O)[C@@H](O)[C@H]1O (some centres undefined) [4-galactosyllactose] | % | 101
CCN1C(C)(C)CC(Oc2ccc(C(=O)Nc3ccc(NC(=O)Nc4cc(C(C)(C)C)on4)cc3)nc2)CC1(C)C [AC-710] | % | 104
CC[C@H](CC[C@@H](C)[C@H]1CC[C@H]2[C@@H]3CC=C4C[C@@H](O[C@@H]5O[C@H](CO)[C@@H](O)[C@H](O)[C@H]5O)CC[C@]4(C)[C@H]3CC[C@]12C)C(C)C [daucosterol] | % | 90.5
COc1cc(NS(C)(=O)=O)ccc1Nc1c2ccccc2nc2ccccc12 [amsacrine] | % | 65.2

====

cell viability reference
System: Calu-3
experiment: cell viability relative to DMSO; higher = less toxic
recorded_conditions: 72 h; 1 nM

compound | cell viability (%)
COC(=O)C1=C(C)NC(C)=C(C(=O)OCCN2CCN(C(c3ccccc3)c3ccccc3)CC2)C1c1cccc([N+](=O)[O-])c1 (stereo not drawn) | 94.6
CC(C)(OCc1nn(Cc2ccccc2)c2ccccc12)C(=O)O | 99
COc1cccc(OCCCN)c1-c1cc(Nc2cnc(C#N)cn2)n[nH]1 | 106
O=C(NCNC(=O)NC1C(=O)NC(=O)N1CO)NC1C(=O)NC(=O)N1CO (stereo not drawn) | 94.4
O=C1O[C@H](CO)[C@@H](O)[C@H](O)[C@H]1O | 99.6
NC1=N[C@@]2(c3cc(NC(=O)c4ccc(F)cn4)ccc3F)COC[C@H]2CS1 | 103
O=C(NCCS(=O)(=O)c1ccc(C(F)(F)F)cn1)c1ccc(Cl)cc1 | 104
COc1cccc(-c2cc(NCc3ccc4c(c3)OCO4)nc(N)n2)c1 | 104
